test: Human Liver Microsomal Stability (Test C); type: in vitro ADME; conditions: human, liver microsomes
Each entry gets 0.0 if its microsomal CLint stays under 20 µL/min/mg, and 1.0 if its microsomal CLint is 20 µL/min/mg or above.

[[record]]
compound = "COc1cc(F)c(O[C@H]2CC[C@@H](C(=O)O)CC2)cc1C(=O)NC1C(C(=O)NCCCC(F)(F)F)[C@@H]2CC[C@H]1C2 (some centres unmarked) [Example 175]"
class_name = 0.0

[[record]]
compound = "COc1cc(F)c(O[C@H]2CC[C@@H](C(=O)O)CC2)cc1C(=O)N[C@@H]1[C@H]2CC[C@H](C2)[C@@H]1C(=O)Nc1cc(C(F)(F)F)cc(C(F)(F)F)c1 [Example 22]"
class_name = 1.0

[[record]]
compound = "COc1cc(F)c(-c2ccc(C(=O)O)c(F)c2)cc1C(=O)N[C@@H]1[C@H]2CC[C@H](C2)[C@@H]1C(=O)Nc1cccc(S(=O)(=O)C(F)(F)F)c1 [Example 236]"
class_name = 0.0

[[record]]
compound = "COc1cc(F)c(O[C@H]2CC[C@@](CO)(C(=O)O)CC2)cc1C(=O)N[C@@H]1[C@H]2CC[C@H](C2)[C@@H]1C(=O)NCC1(C(F)(F)F)CCC1 [Example 365]"
class_name = 0.0

[[record]]
compound = "COc1cc(F)c(-c2cccc(CC(=O)O)c2)cc1C(=O)N[C@@H]1CCC[C@@H]1C(=O)Nc1cccc(S(=O)(=O)C(F)(F)F)c1 [Example 318]"
class_name = 0.0

[[record]]
compound = "COc1cc(C#N)c(O[C@H]2CC[C@@](C)(C(=O)O)CC2)cc1C(=O)N[C@@H]1[C@H]2CC[C@H](C2)[C@@H]1C(=O)NC12CC(C1)C2 [Example 141]"
class_name = 0.0

[[record]]
compound = "CCc1cc(OC)c(C(=O)N[C@@H]2[C@H]3CC[C@H](C3)[C@@H]2C(=O)NCC2(C)CCC2)cc1O[C@H]1CC[C@@](C)(C(=O)O)CC1 [Example 376]"
class_name = 1.0

[[record]]
compound = "COc1cc(F)c(O[C@H]2CC[C@@H](C(=O)O)CC2)cc1C(=O)N[C@@H]1[C@H]2CC[C@H](C2)[C@@H]1C(=O)NCC(C)(C)C [Example 180]"
class_name = 0.0

[[record]]
compound = "COc1cc(F)c(O[C@H]2CC[C@@](C)(C(=O)O)CC2)cc1C(=O)N[C@@H]1CCC[C@@H]1C(=O)N[C@@H](C)C(C)(C)C [Example 61]"
class_name = 0.0

[[record]]
compound = "COc1cc(F)c(O[C@H]2CC[C@@H](C(=O)O)CC2)cc1C(=O)N[C@@H]1[C@H]2CC[C@H](C2)[C@@H]1C(=O)Nc1ccc(Cl)c(C(F)(F)F)c1 [Example 186]"
class_name = 1.0

[[record]]
compound = "COc1cc(F)c(-c2ccc(OC(C)(C)C(=O)O)cc2)cc1C(=O)N[C@@H]1[C@H]2CC[C@H](C2)[C@@H]1C(=O)Nc1cccc(S(=O)(=O)C(F)(F)F)c1 [Example 256]"
class_name = 0.0

[[record]]
compound = "COc1cc(F)c(O[C@H]2CC[C@@H](C(=O)O)CC2)cc1C(=O)N[C@@H]1[C@H]2CC[C@H](C2)[C@@H]1C(=O)Nc1cccc(I)c1 [Example 185]"
class_name = 1.0

[[record]]
compound = "COc1cc(F)c(-c2ccc(-c3nn[nH]n3)cc2)cc1C(=O)N[C@@H]1[C@H]2CC[C@H](C2)[C@@H]1C(=O)Nc1cccc(S(=O)(=O)C(F)(F)F)c1 [Example 325]"
class_name = 0.0

[[record]]
compound = "COc1cc(C)c(O[C@H]2CC[C@@](C)(C(=O)O)CC2)cc1C(=O)N[C@@H]1[C@H]2CC[C@H](C2)[C@@H]1C(=O)NCC1(C)CCC1 [Example 375]"
class_name = 1.0

[[record]]
compound = "COc1cc(F)c(O[C@H]2CC[C@@H](C(=O)O)CC2)cc1C(=O)N[C@@H]1[C@H]2CC[C@H](C2)[C@@H]1C(=O)Nc1cc(F)c(F)c(F)c1 [Example 187]"
class_name = 0.0

[[record]]
compound = "COc1cc(C#N)c(O[C@H]2CC[C@@](C)(C(=O)O)CC2)cc1C(=O)N[C@@H]1[C@H]2CC[C@H](C2)[C@@H]1C(=O)NC1(C)CCC1 [Example 90]"
class_name = 0.0

